- Tested on: antibodies recognizing the (139-147) segment of the S-protein (reaction with HBsAg)
- TEST METHOD NOTES: Inhibition of attachment of antibodies recognizing S(139-147) to HBsAg-coated wells (comparative antigenicity of replacement set peptides)
- Format: binding, rabbit
- EXPERIMENTAL CONTEXT: HBsAg-coated wells; rabbit antiserum to S(135-155) diluted 150-fold; read-out: concentration of peptide at which a 50% inhibition of anti-HBs attachment occurred (C50)
pIC50: −log10 of the molar value.
QUANTITY: pIC50

* CTKPSDGNC | 7.25
